Ref: patent US11319298B2

Target: human M4 muscarinic acetylcholine receptor (Homo sapiens, UniProt P08173)
Sequence (P08173 whole entry): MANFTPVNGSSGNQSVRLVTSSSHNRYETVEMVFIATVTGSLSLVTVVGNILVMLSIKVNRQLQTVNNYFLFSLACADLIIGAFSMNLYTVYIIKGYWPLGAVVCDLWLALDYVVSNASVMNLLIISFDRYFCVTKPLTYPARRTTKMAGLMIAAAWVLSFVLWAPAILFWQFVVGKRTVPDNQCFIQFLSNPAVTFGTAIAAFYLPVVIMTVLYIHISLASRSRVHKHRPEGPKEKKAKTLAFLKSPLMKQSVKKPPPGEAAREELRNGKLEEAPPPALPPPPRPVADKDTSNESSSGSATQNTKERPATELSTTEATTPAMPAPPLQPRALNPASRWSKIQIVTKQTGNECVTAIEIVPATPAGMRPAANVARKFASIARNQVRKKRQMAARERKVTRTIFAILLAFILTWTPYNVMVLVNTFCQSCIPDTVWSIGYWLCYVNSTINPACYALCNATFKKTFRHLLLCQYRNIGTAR
Test: human FLIPR-based M4 PAM assay, CHO-K1 cells stably transfected with human M4 receptor and chimeric G-protein Gαqi5
Settings: inflection point (IP) of dose response curve; acetylcholine added at 20% of maximum response; CHO-K1 human M4/Gαqi5, FLIPR Tetra
Protocol: In a typical experiment the M4 muscarinic acetylcholine receptor modulating activity of the compounds of the present invention was determined in accordance with the following experimental method. […] Following dye loading the cell plates are placed in a FLIPR Tetra instrument and while monitoring dye fluorescence (excitation […]), 10 uL of test substance at increasing concentrations is added, and fluorescence values are recorded for 4 min. […]
Here, each record is paired with measured EC50 data.

Solved entries (count: 7):
{"Compound": "Cc1cc(C(=O)N[C@@H]2CCc3ncccc3C2)nnc1N1CCC(Oc2cccc(C#N)c2)CC1 [Example 130B]", "Target Or System": "human M4 muscarinic acetylcholine receptor (Homo sapiens, UniProt P08173)", "EC50": "254 nM"}
{"Compound": "Cc1nc(Cl)c(C)c(N2CCC(Oc3ccc4nn(C)cc4c3)CC2)n1 [Example 67]", "Target Or System": "human M4 muscarinic acetylcholine receptor (Homo sapiens, UniProt P08173)", "EC50": "108 nM"}
{"Compound": "Cc1c(Cl)nc(CO)nc1N1CCC(Oc2ccc3[nH]ccc3c2)CC1 [Example 97]", "Target Or System": "human M4 muscarinic acetylcholine receptor (Homo sapiens, UniProt P08173)", "EC50": "68 nM"}
{"Compound": "COc1ccc(OC2CCN(c3nc(C(=O)NC4CCCc5cnccc54)nc(Cl)c3C)CC2)cn1 (centres unmarked) [Example 214]", "Target Or System": "human M4 muscarinic acetylcholine receptor (Homo sapiens, UniProt P08173)", "EC50": "770 nM"}
{"Compound": "COc1ccc(OC2CCN(c3nc(C(=O)NC(C)C)nc(Cl)c3C)CC2)cn1 [Example 213]", "Target Or System": "human M4 muscarinic acetylcholine receptor (Homo sapiens, UniProt P08173)", "EC50": "729 nM"}
{"Compound": "COc1ccc(OC2CCN(c3nnc(C(=O)NCc4ccncn4)cc3C)CC2)cn1 [Example 150]", "Target Or System": "human M4 muscarinic acetylcholine receptor (Homo sapiens, UniProt P08173)", "EC50": "233 nM"}
{"Compound": "Cc1c(Cl)nc(CO)nc1N1CC[C@@H](Oc2ccc3c(cnn3C)c2)[C@@H](F)C1 (relative stereo) [Example 25]", "Target Or System": "human M4 muscarinic acetylcholine receptor (Homo sapiens, UniProt P08173)", "EC50": "78 nM"}

Alright, here's another compound for you.
Briefly, EC50 measured for COc1ccc(O[C@@H]2CCN(c3nc(C)ncc3C)C[C@@H]2F)cn1 [Example 84] : 574 nM

---

target: UniProtKB P08173; assay: human FLIPR-based M4 PAM assay, CHO-K1 cells stably transfected with human M4 receptor and chimeric G-protein Gαqi5; details: inflection point (IP) of dose response curve; acetylcholine added at 20% of maximum response; CHO-K1 human M4/Gαqi5, FLIPR Tetra
Attribute Measured: EC50

Solved entries (count: 6):
{"Compound": "COc1ccc(OC2CCN(c3nnc(C(=O)N[C@@H]4CCCc5ccccc54)cc3C)CC2)cn1", "EC50": "1330 nM"}
{"Compound": "COc1ccc(OC2CCN(c3nnc(C(=O)NCc4cccc(C#N)c4)cc3C)CC2)cn1", "EC50": "261 nM"}
{"Compound": "COc1ccc(OC2CCN(c3ncnc(-c4ccc(F)nc4)c3C)CC2)cn1", "EC50": "633 nM"}
{"Compound": "Cc1cc(C(=O)N[C@H]2CCc3cccnc3C2)nnc1N1CCC(Oc2cccc(C#N)c2)CC1 [Example 164A]", "EC50": "434 nM"}
{"Compound": "COc1ccc(OC2CCN(c3nc(C(=O)NC45CC(C4)C5)nc(Cl)c3C)CC2)cn1", "EC50": "592 nM"}
{"Compound": "COc1ccc(OC2CCN(c3ncnc(-c4cccnc4)c3C)CC2)cn1", "EC50": "1440 nM"}

UniProtKB P08173 assay, compound COc1ccc(OC2CCN(c3ncnc(N4CCCC4)c3C)CC2)cn1 , recorded EC50 = 1820 nM

UniProtKB P08173 assay, compound COc1ccc(OC2CCN(c3nc(C4CC4)nc(Cl)c3C)CC2)cc1 [Example 95C] , recorded EC50 = 846 nM

UniProtKB P08173 assay, compound Cc1c(Cl)nc(CO)nc1N1CCC(Oc2ccc3c(c2)C(=O)CCC3)CC1 , recorded EC50 = 252 nM

UniProtKB P08173 assay, compound COc1ccc(OC2CCN(c3nnc(C(=O)N4CCc5snc(-c6cccnc6)c5C4)cc3C)CC2)cn1 , recorded EC50 = 504 nM

UniProtKB P08173 assay, compound Cc1c(Cl)nc(CO)nc1N1CC[C@@H](Oc2ccc3c(c2)C(=O)N(C)C3)[C@@H](F)C1 , recorded EC50 = 378 nM

UniProtKB P08173 assay, compound Cc1c(Cl)nc(CO)nc1N1CCC(Oc2ccc3nonc3c2)CC1 , recorded EC50 = 766 nM
